TGT: T1, IGFBP-1 (human, UniProt P08833 26-259)
T1 construct: Biotinylated in the ELISA assays; also called rhIGFBP-1
T1 sequence (looked up): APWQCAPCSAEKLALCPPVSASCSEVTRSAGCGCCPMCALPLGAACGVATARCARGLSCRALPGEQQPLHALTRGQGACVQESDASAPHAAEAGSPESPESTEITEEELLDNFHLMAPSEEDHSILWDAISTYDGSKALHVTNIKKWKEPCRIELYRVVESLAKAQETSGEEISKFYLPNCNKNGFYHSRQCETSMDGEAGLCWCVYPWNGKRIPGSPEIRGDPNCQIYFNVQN
EXPERIMENTAL DETAILS: BIAcore competition: peptide inhibits IGFBP-1 binding to IGF-I; ratio against bp1-14
Positions of bridges follow the written chain, without caps; N, C: chain ends. No end group written: not given here.
IC50 (114)/IC50 (mut) reference

{"BINDER": "CRAGPLQWLCEKYF-NH2 (disulfide 1-10 (inferred), bp1-01 lacking the C-terminal Gly) [bp1-16]", "IC50 (114)/IC50 (mut) (ratio)": 0.21}
{"BINDER": "SEVGCRAGPLQWLCEKYFSTY-NH2 (disulfide 5-14 (inferred), g3 bp1-01 selectant) [bp1-21A]", "IC50 (114)/IC50 (mut) (ratio)": 3.2}
{"BINDER": "EARVCRAGPLQWLCEKYF-NH2 (disulfide 5-14 (inferred), g3 bp1-01 selectant) [bp1-20]", "IC50 (114)/IC50 (mut) (ratio)": 2.6}
{"BINDER": "CRAGPLQWLCEKYFSTY-NH2 (disulfide 1-10 (inferred), g3 bp1-01 selectant) [bp1-21B]", "IC50 (114)/IC50 (mut) (ratio)": 0.67}
